# subjectOfTest: p145 ABL tyrosine kinase (c-Abl) (UniProt P00519 P00519:1-1130)
# Sequence (P00519 whole entry, one chain of several): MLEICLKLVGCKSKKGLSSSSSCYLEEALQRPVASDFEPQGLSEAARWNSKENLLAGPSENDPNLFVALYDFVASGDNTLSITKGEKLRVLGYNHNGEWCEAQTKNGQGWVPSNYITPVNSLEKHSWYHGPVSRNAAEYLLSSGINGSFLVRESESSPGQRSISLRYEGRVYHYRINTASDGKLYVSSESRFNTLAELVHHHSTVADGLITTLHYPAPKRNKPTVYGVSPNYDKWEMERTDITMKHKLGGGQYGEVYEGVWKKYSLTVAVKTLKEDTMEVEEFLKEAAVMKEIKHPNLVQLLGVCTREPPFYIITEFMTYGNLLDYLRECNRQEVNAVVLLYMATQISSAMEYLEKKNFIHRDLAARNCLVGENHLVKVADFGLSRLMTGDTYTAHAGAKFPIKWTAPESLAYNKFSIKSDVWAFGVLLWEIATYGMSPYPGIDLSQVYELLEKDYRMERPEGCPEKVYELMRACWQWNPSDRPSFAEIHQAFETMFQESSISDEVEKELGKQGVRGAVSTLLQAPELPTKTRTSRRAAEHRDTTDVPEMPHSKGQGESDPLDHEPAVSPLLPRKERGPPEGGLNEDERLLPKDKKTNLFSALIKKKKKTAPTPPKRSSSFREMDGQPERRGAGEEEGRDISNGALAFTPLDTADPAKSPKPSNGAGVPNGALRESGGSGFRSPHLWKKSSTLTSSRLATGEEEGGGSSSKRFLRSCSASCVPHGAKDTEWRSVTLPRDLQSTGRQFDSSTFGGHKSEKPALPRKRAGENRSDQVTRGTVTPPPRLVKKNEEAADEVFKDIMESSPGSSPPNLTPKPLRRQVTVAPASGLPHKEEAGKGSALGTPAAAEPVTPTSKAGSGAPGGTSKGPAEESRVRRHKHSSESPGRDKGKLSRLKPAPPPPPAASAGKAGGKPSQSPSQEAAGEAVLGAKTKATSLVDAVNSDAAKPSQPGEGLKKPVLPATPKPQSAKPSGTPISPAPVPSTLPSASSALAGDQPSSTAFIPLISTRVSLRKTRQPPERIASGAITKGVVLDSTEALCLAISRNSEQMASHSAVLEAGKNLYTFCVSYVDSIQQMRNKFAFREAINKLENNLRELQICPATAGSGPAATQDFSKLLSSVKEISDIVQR
# testDetails: inhibition; 20 mM Mn, 30 C
# testContext: tags: immunoprecipitated from PC3M cells with anti-c-abl clone 24-21
# Method: Cells were washed in phosphate buffered saline (PBS) and 0.5–5×10^6 cells were solubilized in 1 ml of the specified cell lysis buffers. Unless otherwise stated, all cell lysis buffers contained the following protease inhibitors: 20 µg/ml leupeptin, 1 µg/ml aprotinin, and 1 mM phenylmethylsulfonylfluroide. […]
pIC50: −log10 of the molar value.
experimentalReadout: pIC50

GTCCACCATGGCGCGGCCGGC (ssDNA, PS, two linkages at each of 5' and 3' ends, rest phosphodiester) [ODN1 (BCR-AS), phosphorothioate capped] : 6.21
